# Tested on: 843782-103-R-J1-PDC complex spheroid viability
# experiment summary: Anticancer human tumor 843782-103-R-J1-PDC patient-derived lung adenocarcinoma cell line growth inhibition [RAS]; active = viability on the fitted dose curve at most 10% of control; inactive = the rest
# experimental context: compound 1 µM
# Source text: RAS pathway inhibitors in Combinations in Complex Spheroids A high-throughput screen of multi-cell type tumor spheroids was designed to identify active combinations of RAS pathway inhibitors and targeted small molecules. Complex spheroids include a stromal component modeled by human endothelial cells (HUVEC) and fibroblasts modeled by human mesenchymal stem cells (MSCs). […] Compounds. […] If the clinical Cmax for an agent had not been determined, the highest concentration tested was 10 microM. […]
// classify into Y for active, N for inactive

Exercise: # outcome recorded in this test, key = C=CC(=O)N1CCN(c2nc(OCC3CCCN3C)nc3c(F)c(-c4nc(N)cc(C)c4C(F)(F)F)c(Cl)cc23)C(C)C1 (stereo not given)
Solution: N

Exercise: Would you mind doing CC(Nc1ccc2c(c1)OCCn1cc(N3C(=O)OCC3C(F)F)nc1-2)C(N)=O (stereo not given) as well?
Solution: N

Exercise: // same read-out, input: C=CC(=O)Nc1cc(Nc2nccc(-c3cn(C)c4ccccc34)n2)c(OC)cc1N(C)CCN(C)C
Solution: N

Exercise: And what about the compound CCN1CCN(Cc2ccc(Nc3ncc(F)c(-c4cc(F)c5nc(C)n(C(C)C)c5c4)n3)nc2)CC1 ?
Solution: N

Exercise: Now the compound O=C(c1ccc(F)c(F)c1Nc1ccc(I)cc1F)N1CC(O)([C@@H]2CCCCN2)C1
Solution: N

Exercise: Please answer likewise for Nc1ccn(C2OC(CO)C(O)C2(F)F)c(=O)n1 (stereo not given)
Solution: Y

Exercise: Next entry: C#Cc1c(F)ccc2cc(O)cc(-c3ncc4c(N5CC6CCC(C5)N6)nc(OCC56CCCN5CC(F)C6)nc4c3F)c12 (stereo not given)
Solution: N

Exercise: Same lookup for CC(C)NCC(C(=O)N1CCN(c2ncnc3c2C(C)CC3O)CC1)c1ccc(Cl)cc1 (stereo not given) , please.
Solution: N

Exercise: Could you do the same for CC(=O)OC12COC1CC(O)C1(C)C(=O)C(O)C3=C(C)C(OC(=O)C(O)C(NC(=O)OC(C)(C)C)c4ccccc4)CC(O)(C(OC(=O)c4ccccc4)C21)C3(C)C (stereo not given) , please?
Solution: Y

Exercise: CC1(O)CCCC1n1c(=O)c(C(F)F)cc2cnc(NC3CCN(S(C)(=O)=O)CC3)nc21 (stereo not given) ?
Solution: N

* * *

# Test system: 843782-103-R-J1-PDC complex spheroid viability
# experiment summary: Anticancer human tumor 843782-103-R-J1-PDC cell line growth inhibition [RAS];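 also: viability read after seven days of compound exposure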
# experimental context: second compound 0.00949 µM; first compound 0.1 µM; stronger effect = lower value
Record form. Attribute: viability, T/C. Fill in for each entry.
// return numeric value only (unit: %, not printed)

Exercise: Which viability, T/C is reported for this molecule? CCN1CCN(Cc2ccc(Nc3ncc(F)c(-c4cc(F)c5nc(C)n(C(C)C)c5c4)n3)nc2)CC1 + CCn1c(-c2cc(N3CCN(C)CC3)cnc2C(C)OC)c2c3cc(ccc31)-c1csc(n1)CC(NC(=O)C1CC1C)C(=O)N1CCCC(N1)C(=O)OCC(C)(C)C2
Solution: 31.1

Exercise: What would you report for O=C(c1ccc(F)c(F)c1Nc1ccc(I)cc1F)N1CC(O)([C@@H]2CCCCN2)C1 + CCn1c(-c2cccnc2C(C)OC)c2c3cc(ccc31)N1CCOC(CC(NC(=O)C(C(C)C)N(C)C(=O)C3(F)CCN(C(=O)C#CC(C)(C)N(C)C)CC3)C(=O)N3CCCC(N3)C(=O)OCC(C)(C)C2)C1 ?
Solution: 30.9

Exercise: What about O=C(c1ccc(F)c(F)c1Nc1ccc(I)cc1F)N1CC(O)([C@@H]2CCCCN2)C1 + CCn1c(-c2cc(N3CCN(C)CC3)cnc2C(C)OC)c2c3cc(ccc31)-c1csc(n1)CC(NC(=O)C1CC1C)C(=O)N1CCCC(N1)C(=O)OCC(C)(C)C2 ?
Solution: 10.9

Exercise: Input C=CC(=O)N1CCN(c2nc(OCC3CCCN3C)nc3c(F)c(-c4nc(N)cc(C)c4C(F)(F)F)c(Cl)cc23)C(C)C1 (stereo not drawn) + CCn1c(-c2cc(N3CCN(C)CC3)cnc2C(C)OC)c2c3cc(ccc31)-c1csc(n1)CC(NC(=O)C1CC1C)C(=O)N1CCCC(N1)C(=O)OCC(C)(C)C2
Solution: 37.1

Exercise: Repeat with CCC(CC)c1cc(NC2CCC(N)C2)n2nccc2n1 (stereo not drawn) + CCn1c(-c2cccnc2C(C)OC)c2c3cc(ccc31)N1CCOC(CC(NC(=O)C(C(C)C)N(C)C(=O)C3(F)CCN(C(=O)C#CC(C)(C)N(C)C)CC3)C(=O)N3CCCC(N3)C(=O)OCC(C)(C)C2)C1
Solution: 73.7

Exercise: Now give it for C=CC(=O)Nc1cc(Nc2nccc(-c3cn(C)c4ccccc34)n2)c(OC)cc1N(C)CCN(C)C + CCn1c(-c2cc(N3CCN(C)CC3)cnc2C(C)OC)c2c3cc(ccc31)-c1csc(n1)CC(NC(=O)C1CC1C)C(=O)N1CCCC(N1)C(=O)OCC(C)(C)C2 too.
Solution: 25.7

Exercise: Try the molecule CC(C)n1nc(-c2ccc3oc(N)nc3c2)c2c(N)ncnc21 + CCn1c(-c2cccnc2C(C)OC)c2c3cc(ccc31)N1CCOC(CC(NC(=O)C(C(C)C)N(C)C(=O)C3(F)CCN(C(=O)C#CC(C)(C)N(C)C)CC3)C(=O)N3CCCC(N3)C(=O)OCC(C)(C)C2)C1
Solution: 15.5

Exercise: Thanks! And CC1(O)CCCC1n1c(=O)c(C(F)F)cc2cnc(NC3CCN(S(C)(=O)=O)CC3)nc21 (stereo not drawn) + CCn1c(-c2cccnc2C(C)OC)c2c3cc(ccc31)N1CCOC(CC(NC(=O)C(C(C)C)N(C)C(=O)C3(F)CCN(C(=O)C#CC(C)(C)N(C)C)CC3)C(=O)N3CCCC(N3)C(=O)OCC(C)(C)C2)C1 ?
Solution: 43.5

* * *

# System: 843782-103-R-J1-PDC complex spheroid viability
# experiment summary: Anticancer human tumor 843782-103-R-J1-PDC cell line growth inhibition [RAS]; active = viability on the fitted dose curve at most 10% of control; inactive = the rest;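 also: viability read after seven days of compound exposure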
# experimental context: second compound 0.01 µM; first compound 1 µM
# Description: RAS pathway inhibitors in Combinations in Complex Spheroids A high-throughput screen of multi-cell type tumor spheroids was designed to identify active combinations of RAS pathway inhibitors and targeted small molecules. Complex spheroids include a stromal component modeled by human endothelial cells (HUVEC) and fibroblasts modeled by human mesenchymal stem cells (MSCs). […] Compounds. […] If the clinical Cmax for an agent had not been determined, the highest concentration tested was 10 microM. […]
Choose one outcome from this list and give only that: active, inactive

Exercise: Just curious, what result did C=CC(=O)Nc1cc(Nc2nccc(-c3cn(C)c4ccccc34)n2)c(OC)cc1N(C)CCN(C)C + C=CC(=O)N1CCN(c2nc(OCC3CCCN3C)nc3c(F)c(-c4nc(N)cc(C)c4C(F)(F)F)c(Cl)cc23)C(C)C1 get here?
Solution: inactive

Exercise: Now give it for Cc1nc(N2CCC3(CC2)COC(C)C3N)c(CO)nc1Sc1ccnc(N)c1Cl (centres undefined) + C=CC(=O)N1CCN(c2nc(OCC3CCCN3C)nc3c(F)c(-c4nc(N)cc(C)c4C(F)(F)F)c(Cl)cc23)C(C)C1 too.
Solution: inactive

Exercise: Proceed to CC(Nc1ccc2c(c1)OCCn1cc(N3C(=O)OCC3C(F)F)nc1-2)C(N)=O (centres undefined) + C=CC(=O)N1CCN(c2nc(OCC3CCCN3C)nc3c(F)c(-c4nc(N)cc(C)c4C(F)(F)F)c(Cl)cc23)C(C)C1
Solution: inactive

Exercise: Request: Nc1ccn(C2OC(CO)C(O)C2(F)F)c(=O)n1 (centres undefined) + C=CC(=O)N1CCN(c2nc(OCC3CCCN3C)nc3c(F)c(-c4nc(N)cc(C)c4C(F)(F)F)c(Cl)cc23)C(C)C1
Solution: active

Exercise: Lookup NC1c2ccccc2OC12CCN(c1cnc3c(N4CCCc5ncccc54)n[nH]c3n1)CC2 (centres undefined) + C=CC(=O)N1CCN(c2nc(OCC3CCCN3C)nc3c(F)c(-c4nc(N)cc(C)c4C(F)(F)F)c(Cl)cc23)C(C)C1
Solution: inactive

Exercise: What do you have for CCC(CC)c1cc(NC2CCC(N)C2)n2nccc2n1 (centres undefined) + C=CC(=O)N1CCN(c2nc(OCC3CCCN3C)nc3c(F)c(-c4nc(N)cc(C)c4C(F)(F)F)c(Cl)cc23)C(C)C1 ?
Solution: inactive

Exercise: What do we get for CC(=O)OC12COC1CC(O)C1(C)C(=O)C(O)C3=C(C)C(OC(=O)C(O)C(NC(=O)OC(C)(C)C)c4ccccc4)CC(O)(C(OC(=O)c4ccccc4)C21)C3(C)C (centres undefined) + C=CC(=O)N1CCN(c2nc(OCC3CCCN3C)nc3c(F)c(-c4nc(N)cc(C)c4C(F)(F)F)c(Cl)cc23)C(C)C1 ?
Solution: active

Exercise: What would you report for CC(C)NCC(C(=O)N1CCN(c2ncnc3c2C(C)CC3O)CC1)c1ccc(Cl)cc1 (centres undefined) + C=CC(=O)N1CCN(c2nc(OCC3CCCN3C)nc3c(F)c(-c4nc(N)cc(C)c4C(F)(F)F)c(Cl)cc23)C(C)C1 ?
Solution: inactive

Exercise: What do you get for O=C(c1ccc(F)c(F)c1Nc1ccc(I)cc1F)N1CC(O)([C@@H]2CCCCN2)C1 + C=CC(=O)N1CCN(c2nc(OCC3CCCN3C)nc3c(F)c(-c4nc(N)cc(C)c4C(F)(F)F)c(Cl)cc23)C(C)C1 ?
Solution: inactive
